- TARGET_DESC: Cannabinoid receptor 1 (Homo sapiens)
- TEST_METHOD_NOTES: Displacement of [3H]-SR- 141716A binding to human CB1 receptor expressed in CHO cell membranes at the concentration of 10 uM
Assign class by Displacement: not lower than 50% means condition met; lower than 50% means condition not met.

CCCCCCCCN1C(=O)NC(c2ccccc2)(c2ccccc2)C1=O : condition met
CCCCCCN1C(=O)NC(c2ccc(F)cc2)(c2ccc(F)cc2)C1=O : condition not met
O=C1NC(c2ccccc2)(c2ccccc2)C(=O)N1CCN1CCOCC1 : condition not met
O=C1NC(c2ccc(F)cc2)(c2ccc(F)cc2)C(=O)N1CCN1CCOCC1 : condition not met
Cc1ccc(C2(c3ccc(C)cc3)NC(=O)N(CCN3CCOCC3)C2=O)cc1 : condition not met
O=C1NC(c2ccccc2)(c2ccccc2)C(=O)N1CCN1CCCCC1 : condition not met
CN(C)CCN1C(=O)NC(c2ccccc2)(c2ccccc2)C1=O : condition not met
CCCN1C(=O)NC(c2ccccc2)(c2ccccc2)C1=O : condition not met
O=C1NC(c2ccc(Br)cc2)(c2ccc(Br)cc2)C(=O)N1CCN1CCOCC1 : condition met
CCCCCCN1C(=O)NC(c2ccccc2)(c2ccccc2)C1=O : condition not met
CCCCCCN1C(=O)NC(c2ccc(OC)cc2)(c2ccc(OC)cc2)C1=O : condition met
CCCCN1C(=O)NC(c2ccccc2)(c2ccccc2)C1=O : condition not met
CCCCCCCN1C(=O)NC(c2ccc(Br)cc2)(c2ccc(Br)cc2)C1=O : condition met
COc1ccc(C2(c3ccc(OC)cc3)NC(=O)N(CCN3CCOCC3)C2=O)cc1 : condition not met
O=C1NC(c2ccccc2)(c2ccccc2)C(=O)N1Cc1ccccc1 : condition not met
CCCCCCN1C(=O)NC(c2ccc(C)cc2)(c2ccc(C)cc2)C1=O : condition not met
CCCCCCN1C(=O)NC(c2ccc(Br)cc2)(c2ccc(Br)cc2)C1=O : condition met
CCCCCCCCN1C(=O)NC(c2ccc(F)cc2)(c2ccc(F)cc2)C1=O : condition met
O=C1NC(c2ccc(Br)cc2)(c2ccc(Br)cc2)C(=O)N1CCCO : condition met
O=C1NC(c2ccccc2)(c2ccccc2)C(=O)N1C1CC1 : condition not met
CCCCCCCCN1C(=O)NC(c2ccc(Br)cc2)(c2ccc(Br)cc2)C1=O : condition met
CCCCCN1C(=O)NC(c2ccccc2)(c2ccccc2)C1=O : condition not met

====

- TARGET_DESC: Cannabinoid receptor 1 (Homo sapiens, UniProt P21554)
- Sequence (P21554 whole entry): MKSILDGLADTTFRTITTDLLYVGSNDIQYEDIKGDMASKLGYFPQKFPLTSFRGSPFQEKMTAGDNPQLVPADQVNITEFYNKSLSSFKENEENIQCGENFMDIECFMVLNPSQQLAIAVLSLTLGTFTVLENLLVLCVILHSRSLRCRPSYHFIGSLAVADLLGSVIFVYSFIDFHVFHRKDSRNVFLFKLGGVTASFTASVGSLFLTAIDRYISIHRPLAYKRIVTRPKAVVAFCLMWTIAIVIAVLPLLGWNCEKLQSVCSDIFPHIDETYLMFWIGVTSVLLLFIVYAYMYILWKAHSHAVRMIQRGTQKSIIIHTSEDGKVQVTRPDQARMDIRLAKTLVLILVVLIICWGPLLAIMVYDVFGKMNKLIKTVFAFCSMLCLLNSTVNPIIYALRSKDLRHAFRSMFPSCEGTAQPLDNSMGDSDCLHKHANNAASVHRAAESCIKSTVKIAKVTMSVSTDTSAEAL
- TEST_METHOD_NOTES: Displacement of [3H]-SR- 141716A binding to human CB1 receptor expressed in CHO cell membranes at the concentration of 1 uM
QUANTITY_MEASURED: Displacement (%)

O=C1NC(c2ccc(Br)cc2)(c2ccc(Br)cc2)C(=O)N1CCN1CCOCC1 : 54.1
CCCCCCCCN1C(=O)NC(c2ccc(Br)cc2)(c2ccc(Br)cc2)C1=O : 48.2
CCCCCCN1C(=O)NC(c2ccc(OC)cc2)(c2ccc(OC)cc2)C1=O : 23
CCCCCCN1C(=O)NC(c2ccc(Br)cc2)(c2ccc(Br)cc2)C1=O : 30.2
CCCCCCCN1C(=O)NC(c2ccc(Br)cc2)(c2ccc(Br)cc2)C1=O : 51.5
O=C1NC(c2ccc(Br)cc2)(c2ccc(Br)cc2)C(=O)N1CCCO : 50.2
CCCCCCCCN1C(=O)NC(c2ccc(F)cc2)(c2ccc(F)cc2)C1=O : 15.3
